The origin of these recorded values is the RNAGym collection of RNA variant scans (doi:10.1126/science.aae0568).

B1: tRNA (parent)
chain: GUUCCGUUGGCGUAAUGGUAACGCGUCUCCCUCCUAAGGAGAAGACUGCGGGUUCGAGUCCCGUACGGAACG

variants of: B1; assay: yeast fitness relative to wild type (ratio to wild type); higher = fitter; tRNA-Arg(CCU), competitive growth, 37 C, YPD
This sample holds only a part of the variants without activity.
READOUT: yeast fitness

A selection of reference data follows.
C4A U8C C49U C55A C66U :: ≤ 0.5
G12C U16A C24G G58C C61G :: ≤ 0.5
C46G C62A :: 0.873

query: Return yeast fitness (reported value) for this variant: C5U U13G C61U
result: 0.726

query: Return yeast fitness (reported value) for this variant: A15C U47C A69U
result: 0.551

query: Return yeast fitness (reported value) for this variant: U8C C49G C62A
result: ≤ 0.5

query: Return yeast fitness (reported value) for this variant: U28G G51U U64A C66U A69C
result: ≤ 0.5

query: Return yeast fitness (reported value) for this variant: G58C C61A A69U
result: 0.55

query: Return yeast fitness (reported value) for this variant: G48A A69U
result: 0.961

query: Return yeast fitness (reported value) for this variant: C5G U28C U35A
result: 0.545

query: Return yeast fitness (reported value) for this variant: A14C A21G A37C G50A A57C
result: ≤ 0.5

query: Return yeast fitness (reported value) for this variant: G18A U32C A69C
result: 0.549

query: Return yeast fitness (reported value) for this variant: G39A A43C
result: 0.796

query: Return yeast fitness (reported value) for this variant: C4U C24U
result: 0.944

query: Return yeast fitness (reported value) for this variant: C5G U8A A42C G48C
result: ≤ 0.5
